I'd be grateful if you could share measured Relative Activity (%) for these entries.
STUDY TARGET: pyranose oxidase (Trametes versicolor)
Construct: made in house; host or cells: Coriolus versicolor ATCC 20155, the native producer (not recombinant); Enzyme was purified from disrupted mycelium by HPA-75, Sepharose 4B and Sephadex G-100 columns
MEASUREMENT PROTOCOL: Substrate specificity (relative activity on carbohydrates, peroxidase/4AA-phenol colour assay)
Format: biochemical
EXPERIMENTAL SETUP: substrate: 0.1 ml of 100 mM carbohydrate liquor; enzyme 2.5 U/ml; percentage of the glucose reaction

molecule="N[C@H]1C(O)O[C@H](CO)[C@@H](O)[C@@H]1O (stereo partly shown) [glucosamine]" result=0%
molecule="O=C(CO)[C@H](O)[C@@H](O)[C@H](O)CO [sorbose]" result=3.4%
molecule="O=C(O)[C@H](O)[C@@H](O)[C@H](O)[C@H](O)CO [gluconic acid]" result=0%
molecule="OC[C@H]1O[C@@H](O[C@H]2[C@H](O)[C@@H](O)C(O)O[C@@H]2CO)[C@H](O)[C@@H](O)[C@H]1O (stereo partly shown) [lactose]" result=0%

Your task in this section: give Relative Activity (%) for each listed record.
1. OC[C@@H](O)[C@@H](O)[C@H](O)[C@H](O)CO [mannitol]
2. O=C[C@H](O)[C@@H](O)[C@H](O)CO [xylose]
3. O=C[C@H](O)[C@@H](O)[C@@H](O)[C@H](O)CO [galactose]
4. O=C(CO)[C@@H](O)[C@H](O)[C@H](O)CO [fructose]
5. OC[C@H]1O[C@H](O[C@H]2O[C@H](CO)[C@@H](O)[C@H](O)[C@H]2O)[C@H](O)[C@@H](O)[C@@H]1O [trehalose]
6. OC[C@H]1O[C@H](O[C@H]2[C@H](O)[C@@H](O)[C@H](O)O[C@@H]2CO)[C@H](O)[C@@H](O)[C@@H]1O [maltose]

["0%", "2.6%", "0.9%", "0%", "0%", "0%"]
